Provide the reported MIC of each item.
Test system: AD/pABC3 (empty vector control, sensitive strain)
Experiment: microbe, parasite or virus in culture
Details: Saccharomyces cerevisiae, read-out: MIC (drug susceptibility), strain AD/pABC3
A complete answer gives the number and then names the unit.

compound="CC[C@@]1([C@@H]2O[C@@H]([C@H]3O[C@@](O)(CO)[C@H](C)C[C@@H]3C)C[C@@H]2C)CC[C@H]([C@]2(C)CC[C@]3(C[C@H](O)[C@@H](C)[C@@H]([C@@H](C)[C@@H](OC)[C@H](C)C(=O)O)O3)O2)O1 [MON, monensin]" tested_target="AD/pABC3 (empty vector control, sensitive strain)" measurement_kind=MIC measurement="0.031 µg/mL"

Each of the following entries comes with a recorded value; kindly state MIC for each.
1. CC/N=c1\cc2oc3cc(NCC)c(C)cc3c(-c3ccccc3C(=O)OCC)c-2cc1C [R6G, rhodamine 6G]
2. CCC(C)n1ncn(-c2ccc(N3CCN(c4ccc(OCC5COC(Cn6cncn6)(c6ccc(Cl)cc6Cl)O5)cc4)CC3)cc2)c1=O (stereo not drawn) [ITC, itraconazole]

Result string:
1. 0.5 µg/mL
2. 0.031 µg/mL

All values here come from paper PMC8765293.
